Test system: NCI/ADR-RES ovarian
Test: NCI tumour cell line growth inhibition, 48 h; in the data active = GI50 below about 0.43 µM; inactive = the rest
API: response.call in true = active, false = inactive

Before answering, review these 4 worked examples.
COMPOUND	TARGET DESC	CLASS
O=C(Cn1c(=O)c(-c2ccccc2)nc2ccccc21)c1cccnc1	NCI/ADR-RES ovarian	false
CC/C=C\C/C=C\C[C@H](O)C/C=C1/C(=O)C=C[C@H]1C/C=C\CCC(=O)OC	NCI/ADR-RES ovarian	false
CN(C)C(=S)NN=C(c1ccccn1)c1ccccn1	NCI/ADR-RES ovarian	true
O=c1[nH]cnc2c1nnn2C1OC(CO)C(O)C1O (stereo not given)	NCI/ADR-RES ovarian	false

# next compound below
Which result was noted for this compound in the test: `C=C1C(=O)O[C@H]2[C@H]1CC/C(CNS(=O)(=O)c1ccc3ccccc3c1)=C\CC[C@@]1(C)O[C@@H]21` false
